# system_name: F protein mutant RSV-DS-Cav1-A with a DS-Cav1 structure before fusion (respiratory syncytial virus subtype A, …, UniProt P03420 26-513)
assay_readout: koff
Record the result as number plus unit.

Dear colleague, I am looking for the recorded koff of the following binder: recombinant monoclonal antibody R22B1 against F protein of RSV (human IgG1-K version) (antibody, V domains shown) VH: QVQLVQSGAEVKKPGSSVMVSCQASGDPLQNYIINWVRQAPGQGPEWMGAIIPALGSAHYGPKFQGRVTITADESTDTAYMELSSLRSEDTAMYYCATETAVIISESYLPHFFDNWGQGTLVTVSS VL: DIQMTQSPSSLSAAVGDRVTITCQASQDIVNYLNWYQQKPGKAPKLLIYVASNLETGVPSRFSGSGSGTDFSLTISSLQPEDVATYYCQEYDSLALAFGGGTKVEIKR
1.41e-05 s⁻¹
